Listed below: melting point values for each entry.

See these solved cases before continuing.
COMPOUND	melting point
N#Cc1ccccc1OCCCN1CCC(NC(=O)Cc2ccccc2)CC1	105 to 107 °C
CC1(COc2ccc(CP(=O)(O)O)cc2)CCCCC1	170 to 172 °C
CC(C)(C)OC(=O)NC(CC(=O)O)c1ccc(Cl)c(Cl)c1 (stereo unspecified)	128 °C
COC(=O)CC1(CN=C=O)CCCCCC1	69 to 72 °C
CC(Cl)(Cl)C(NC(=O)c1cccc(Cl)c1)NC(=NC#N)Nc1ccccc1F (stereo unspecified)	136 to 138 °C

Please examine the following record next.
State the recorded melting point for this entry: N#Cc1ccc2nc[nH]c(=O)c2c1
294 to 300 °C

These entries and their values trace back to a melting point compilation (Tetko et al.; mined from patent text by program, amines drawn as free bases though some values may be those of a salt).
